test system: MS2 coat protein; test: apparent KD of MS2 coat protein; designed switch direction (-1 OFF switch, 1 ON switch): -1; higher = weaker reporter binding; settings: input ligand: none
endpoint name: apparent KD of MS2 coat protein (nM)
Please reply with the bare figure in nM and do not write the unit itself.

Any idea what its apparent KD of MS2 coat protein is? The sequence is AAUCUACAUGUAGGAUAUGCGUGGCAAAGCUAUGCAGAAGGACAUGAGGAUCACCCAUGUUUUAGCGUCUGCGUACAGAUGCGA [Mat - Exclusion NG 1 - Mod of JL - D100] (Eterna round: R96, puzzle: Exclusion NG 1)
27.9

Any idea what its apparent KD of MS2 coat protein is? The sequence is CGUAGACAUGAGGAUCACCCAUGUGAGGAUAUGCUUUUUUAUUAGAAAUGGUGGAGGAGCAGAAGGCACGUGCG [-21.6, -21.5 kcal, 28% A] (Eterna round: R97, puzzle: Exclusion 1)
59.7

Any idea what its apparent KD of MS2 coat protein is? The sequence is GGCAUCGGAGGAUAUACUAAUGGUGAUGCCCGAAGCUUUCUACUUGAGGAUCACCCAAGUAGAAGGCCGAUGCC [jl-ex2.4.80 ViennaUCT mod] (Eterna round: R97, puzzle: Exclusion 2)
13.1

Any idea what its apparent KD of MS2 coat protein is? The sequence is CAUUAUGUUGAGGAUAUGCGCCGGCUCGCUGGCGCAGAAGGCGACACAUGAGGAUCACCCAUGUCAGUUCGCGA [salish99_ex6_r004_418] (Eterna round: R97, puzzle: Exclusion 6)
8.87

Any idea what its apparent KD of MS2 coat protein is? The sequence is ACAUGAGGAUCACCCAUGUUCGGCUGGUCCGUUUCGGCUGUCGAGGAUAUAGUUCGGUGUCCGCGCUAGAAGGCGGGAGCCGGC [Aenatbe mod 63] (Eterna round: R96, puzzle: Exclusion NG 3)
78.5

Any idea what its apparent KD of MS2 coat protein is? The sequence is GAUUACCUAACAAGUAAGCACAUGAGGAUCACCCAUGUGGAGGGUCAUGUCAUGCUCAAGAUGCUCGUCAUUUCUAG [Eternabot (L2) Solution 38] (Eterna round: R97, puzzle: Sensor, turn-off variant 1)
193

Any idea what its apparent KD of MS2 coat protein is? The sequence is GUUUAGUGAGGAUAUGUGGCUUCGAUCGUGCGAAGGAGGCUACAGAAGGCACAUGAGGAUCACCCAUGUUCCUC [salish99_ex4_r4_302] (Eterna round: R97, puzzle: Exclusion 4)
37.1
